Origin of measurements: the supplement of paper PMC9170038

test system: K4 kissing-loop RNA reporter; experiment: apparent KD of K4 kissing-loop reporter; higher = weaker reporter binding; conditions: Eterna round: R107; input ligand: tryptophan 2.4 mM
quantity.name: apparent KD of K4 kissing-loop reporter (nM)
Use nM as the unit, but write only the number.

{"sequence.chain": "AUUAAUAACAGAGGAUAUGCAUUAUUAUUAUUUUUAAAUAAUAAAUGCAGUGAUGUUGCAUAUUAAGCAGAAGGCUGAUUUAUUU [JR_SSFMNB_Sub011]", "display.unit": "nM", "apparent KD of K4 kissing-loop reporter": 353}
{"sequence.chain": "AAGGUCACUACUACAGUGAUGUUGUGGGAGCAGGAUAUGCAGAAAUGCAGAAGGGCUCGCUCCAGGUGACCGAAUGAAACAUUCA [whbob_SS_FMNA__2th174]", "display.unit": "nM", "apparent KD of K4 kissing-loop reporter": 1140}
{"sequence.chain": "GACGUUGAAGCGGCCGCCACUAGGAAGGGUACGGAGAGUACAUCUCACGGAGAGUGAUGUUCUCAUAGGACCGGGCUCAUAUCAA [theeternabot_sameState_KL_Trp_B_21]", "display.unit": "nM", "apparent KD of K4 kissing-loop reporter": 362}
{"sequence.chain": "AAGGCCACGAGAAGGAGCGUGCUGUGGAGUGAUGUUCCAUUGUAGACCUAAGGUCUACGAGCACAGGUAGGUCGCUCGUGGUCAA [Omei KL Arginine B SS A v4]", "display.unit": "nM", "apparent KD of K4 kissing-loop reporter": 99.6}

Request: Please respond with reported apparent KD of K4 kissing-loop reporter (system K4 kissing-loop RNA reporter) for CAGACAUGCGGUAGGUUCAAGCGCUGGGAAGGAGCGCAGAUGACUGCAGGUAGGUCGCCCAGUGAUGUUGGGCUUUCCACCUAUG [Onbeenbi] .
Result: 107

Request: Please respond with reported apparent KD of K4 kissing-loop reporter (system K4 kissing-loop RNA reporter) for AGUGAUGUUGUGUUAUGUUUGGGAAGUGAUCGAGGACCGGUACGGCCGCCACUCGAGUGAUGAGUGAGUGAUGUUUGUUUAGGGA [whbob_SS_Tryp_A_m9] .
Result: 498

###

tested on: MS2 coat protein; assay: apparent KD of MS2 coat protein; designed switch direction (-1 OFF switch, 1 ON switch): -1; higher = weaker reporter binding; details: input ligand: FMN 200 uM
Readings of apparent KD of MS2 coat protein for the listed sequences
Note: a bare number is incomplete; add the unit.

{"sequence.chain": "UGUUGUUACGCAGGAUAUGAGGAUCACCCAUAGAAGGAUAACGAAAGUGAAGGUCUGAGGAUUACCCAGAAGGGCGGGUUAACA [pwkr exNG2 2xF5 2xFMN.2] (Eterna round: R96, puzzle: Exclusion NG 2)", "assayed.target": "MS2 coat protein", "apparent KD of MS2 coat protein": "294 nM"}

// next entry
Request: Consider the sequence AUGCGCAAGCUUUUUGUUCACAUGAGGAUCACCCAUGUUAUGGUCGCCUGUGAGGAGCGAUAGCGUCUCCGACCUGA [Eternabot (Original) Solution 31] (Eterna round: R97, puzzle: Sensor, turn-off variant 1) and give its recorded apparent KD of MS2 coat protein.
Result: 35.7 nM

###

test system: MS2 coat protein; assay: apparent KD of MS2 coat protein; designed switch direction (-1 OFF switch, 1 ON switch): 1; higher = weaker reporter binding; conditions: input ligand: FMN 200 uM
Readings of apparent KD of MS2 coat protein for the listed sequences
Use nM as the unit, but write only the number.

{"sequence.chain": "CGUCGUUUGAUAGGAUAUCGCUUUACAUGAGGAUCACCCAUGUUUCCCACGCUGGUUUUUCUUUCCGAGAAGGAUUCUGAUGUU [salish99_SSNG02_r04_029] (Eterna round: R96, puzzle: Same State NG 2)", "assayed.target": "MS2 coat protein", "display.unit": "nM", "apparent KD of MS2 coat protein": 44.6}

// next entry
Request: Consider the sequence GCGGAGAGGUAAGGAUAUCCAUGGAAAAAACAUGAGGAUCACCCAUGUAGGAAAAAAACUAGGAGGGAGAAGGUACCGGGACGC [AK SSNG2-V2-20] (Eterna round: R96, puzzle: Same State NG 2) and give its recorded apparent KD of MS2 coat protein.
Result: 21.7

###

Readings of apparent KD of K4 kissing-loop reporter for the listed sequences
system: K4 kissing-loop RNA reporter; assay: apparent KD of K4 kissing-loop reporter; higher = weaker reporter binding; details: Eterna round: R107; input ligand: tryptophan 2.4 mM

Here is how some sequences turned out for apparent KD of K4 kissing-loop reporter.
{"sequence.chain": "UUUUAAAUGUCUGAUACCAGAGAAAAUAUAUGUAGUGAUGUUACAUACAAAUUUAAUAAGCUCCCUUGGCAGCAGUAUGAAUUUU [AstrosExc-TheB#15]", "obs.value": "49.5 nM"}
{"sequence.chain": "AGCCGAAAGGCGAGUGCUGUCACUCCGGAAGGAGCGCUCGAAAGAGCAGGUAGGUCGCCGGAGUGAUGUUCCGGUGCAGCACUCA [Omei KL Arginine A Exc B v5]", "obs.value": "1100 nM"}
{"sequence.chain": "GAUUUAGAGGCGGCCGCCACUAGUGAUGUUAGUGAUGUUUGAUAGGGAAUAUAUCAGCGAGUAGAUAGGACCGGGCCAGAUGGAG [gtggbmullin]", "obs.value": "167 nM"}
{"sequence.chain": "GGUGCUGUCUGUGCCGCCCUCCUCGUCCCUCGAGGACCGGUACGGCCGCCACUCGAGUGAUGUUCGGGUAGCCCUCCCUGCCAGC [BDazzled - #21 Exc. Tryptophan A]", "obs.value": "492 nM"}
{"sequence.chain": "UCCUAGGCUCGAAAGAGCCUAGGAUUAUCUCAGGAUAUCCGGAAACGGAGAAGGGAGAAACUAGUGAUGUUAGGGAUUCCCUCUU", "obs.value": "126 nM"}
{"sequence.chain": "ACGUAGUUCUAGGAUACCAGCCAAGGAGGGUAGGACAAAAGUCCUGUAGCCAGUGAUGUUGGCCCUUGGCAGCCUAGAACUACGA [Omei KL Theo B Exc B v3]", "obs.value": "151 nM"}
{"sequence.chain": "UGACUGGACUGAAGGAGCGCGCGAGACAAAGUCUCGAACUCUUAGUGAUGUUAGGAAAUAACGCAGGUAGGUCGCAGUCUAGUCU", "obs.value": "408 nM"}
{"sequence.chain": "CGAAGAUUCCAUGAUACCAGCCUCGGCCCAUAGAGUGAUGUUCUAGUCGGGUCCGUUCGCGGCCCUUGGCAGCAUUUCACCACGA [theeternabot_sameState_KL_Theo_B_44]", "obs.value": "159 nM"}

// next entry
Request: Please respond with reported apparent KD of K4 kissing-loop reporter (system K4 kissing-loop RNA reporter) for GAUGUUUGCCGAAGGAGCGAGUAUUCGCCAGUGAUGUUGGUGAGAUAUACACGUAUCAGUGCUCAGGUAGGUCGCGGCGCUUGUU [Same State Arginine B GF 27] .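 Further: bound reporter read as fluorescence of individual clusters on recovered sequencing chips by microscopy, with normalized cluster intensities fitted with a binding model.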
Result: 117 nM

###

tested on: MS2 coat protein; assay: apparent KD of MS2 coat protein; designed switch direction (-1 OFF switch, 1 ON switch): -1; higher = weaker reporter binding; settings: Eterna round: R95; input ligand: microRNA oligo, concentration not stated
Label rule, in plain words: apparent KD of MS2 coat protein of 30 nM and up is label 1, under 30 nM is label 0.

Examples from the recorded data:
{"sequence.chain": "GCCUCACAUGAGGAUCACCCAUGUCAGGAUAUCUAACGCGAGGUGCAGGCACUUCGUGAGAGAAGGGACGUCAA [Iszabius] (puzzle: Exclusion 1)", "group.label": "label 0"}
{"sequence.chain": "GGGCGUGAAGGAUAUACAUGAGGAUCACCCAUGUGGGAGGAGAAUGGUGAGGAGGCUGGUAGAAGGUCAGGAGG [JR_Exclusion3_Sub009] (puzzle: Exclusion 3)", "group.label": "label 1"}
{"sequence.chain": "UUUCUCUGUGUGAGGAUAUACUUGUUUGGGUUUUUGUAGAAGGCACAUGAGGAUCACCCAUGUAUUUUGUCGUG [JR_BME4_Sub019] (puzzle: Brourd's mod of Exclusion 4)", "group.label": "label 1"}
{"sequence.chain": "CAUUACUGCAAGCUUUGGGACAUGAGGAUCACCCAUGUUCGUCUUAUUGAUCUAGGUACGCUGACGUACCUAGAUCU [JL-sv1-2.27 Brourd mod] (puzzle: Sensor v3, turn-off variant 1)", "group.label": "label 0"}

Then this sequence:
Request: Hi, just wondering whether GCCGAGUGAGGAUAUACAUGAGGAUCACCCAUGUAAACACGAAAGCAAGUGUCCCUCAGUAGAAGGCGCCUGGA [Aerusesxe] (puzzle: Exclusion 3) shows apparent KD of MS2 coat protein of 30 nM or higher.
Result: label 0

###

tested on: MS2 coat protein; assay: apparent KD of MS2 coat protein; designed switch direction (-1 OFF switch, 1 ON switch): -1; higher = weaker reporter binding; conditions: input ligand: FMN 200 uM
Readings of apparent KD of MS2 coat protein for the listed sequences
Use nM as the unit, but write only the number.

{"sequence.chain": "CGUCAUCAAGUCAGGAUAUCGUCAAAUCAAUCAGGCGAGAAGGGACAUGAGGAUCACCCAUGUCGACUCAUCAC [Ex4 #3] (Eterna round: R97, puzzle: Brourd's mod of Exclusion 4)", "apparent KD of MS2 coat protein / nM": 24.9}
{"sequence.chain": "CAGGGCAUGCGAGGAUAUAGCAACAUGAGGAUCACCCAUGUAUAAGGGUGUCCUAGGCAUGCGCGCUAGAAGGCGCUGGUUCUC [Onreusve] (Eterna round: R96, puzzle: Exclusion NG 2)", "apparent KD of MS2 coat protein / nM": 431}
{"sequence.chain": "CCCGUCGAUGUAGGAUAUGCCCGGGUCUCCCGGGCAGAAGGACAUGAGGAUCACCCAUGUUGAUGAGGAUCACCCAUCAAUGGG [Double but mutated MS2] (Eterna round: R96, puzzle: Exclusion NG 1)", "apparent KD of MS2 coat protein / nM": 16.9}

Request: Consider the sequence AAUGUUUGAUACCUUUAAUACAUGAGGAUCACCCAUGUUAUCGAGGAUAUGUAGAUGAAAUGAGAACAGAAGGCGAAGUAAGAG [JR_ExcNG3_Sub098] (Eterna round: R96, puzzle: Exclusion NG 3) and give its recorded apparent KD of MS2 coat protein.
Result: 19.5

Request: Consider the sequence UUAUUACAAGCAAGAUCCCACAUGAGGAUCACCCAUGUGCUCGUCUUAUAAGGUACUGUGACGAAAGUCACGGUACC [Sensor 3, v1 - 100] (Eterna round: R96, puzzle: Sensor v3, turn-off variant 1) and give its recorded apparent KD of MS2 coat protein.
Result: 26.3
